Listed here: items and their measured inhibition.
study_system: Tumor necrosis factor receptor superfamily member 6 (Rattus norvegicus)
assay_protocol: Inhibition of Fas-mediated cell death in oxygen and glucose deprived rat H9c2 cells at 10 uM treated 30 mins before oxygen and glucose deprivation measured after 6 hrs by DAPI staining
Assay type: cell-based
Quick note: give the figure in %, leave out the unit.

COc1cc(NC(=O)CSc2ccc(Br)cc2)c(C2=NCCO2)cc1OC 11.9
COc1cc(C(=O)O)c(NC(=O)CCSc2ccccn2)c(OC)c1OC 28.6
COC(=O)c1oc2cccc(Cl)c2c1NC(=O)CSc1ccc(Br)cc1 14.7

Next:
In: Annotate the compound `O=C(CSc1ccc(Br)cc1)Nc1c(C(=O)O)oc2ccccc12` with its measured inhibition.
Out: 8.47

###

study_system: Tumor necrosis factor receptor superfamily member 6 (Rattus norvegicus)
assay_protocol: Inhibition of Fas-mediated cell death in oxygen and glucose deprived rat H9c2 cells at 10 uM treated 30 mins before oxygen and glucose deprivation measured after 6 hrs by DAPI staining
Type: cell-based
endpoint_name: inhibition (%)
Quick note: give the figure in %, leave out the unit.

// known answers, use as guide
compound	result_unit	inhibition
CN(C)C(=O)c1sccc1NC(=O)CSc1ccc(Br)cc1	%	10.4
O=C(O)c1cc(Cl)ccc1NC(=O)C(Sc1ccc(Br)cc1)c1ccccc1 (configuration not stated)	%	27.4
COC(=O)c1sccc1NC(=O)CSc1ccc(OC)cc1	%	10.8
COC(=O)c1ccccc1NC(=O)CSc1ccccn1	%	7.9

In: Annotate the compound `COC(=O)c1ccccc1NC(=O)CSc1ccccc1` with its measured inhibition.
Out: 6.05

In: Annotate the compound `COC(=O)c1c(NC(=O)CSc2ccc([N+](=O)[O-])cc2)cnn1CCc1ccccc1` with its measured inhibition.
Out: 4.5

In: Annotate the compound `Cc1csc(C(=O)O)c1NC(=O)CSc1ccc(Br)cc1` with its measured inhibition.
Out: 14.3

###

study_system: Tumor necrosis factor receptor superfamily member 6 (Rattus norvegicus) (UniProt Q63199)
Sequence (whole entry): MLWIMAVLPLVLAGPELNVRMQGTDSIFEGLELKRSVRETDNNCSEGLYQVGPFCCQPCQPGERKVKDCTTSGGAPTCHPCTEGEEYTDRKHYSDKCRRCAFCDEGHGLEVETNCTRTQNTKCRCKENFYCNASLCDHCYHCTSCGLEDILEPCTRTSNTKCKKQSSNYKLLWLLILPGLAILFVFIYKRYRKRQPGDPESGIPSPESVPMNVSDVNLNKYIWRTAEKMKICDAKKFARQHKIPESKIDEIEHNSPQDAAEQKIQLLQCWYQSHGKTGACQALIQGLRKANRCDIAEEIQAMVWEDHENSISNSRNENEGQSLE
assay_protocol: Inhibition of Fas-mediated cell death in oxygen and glucose deprived rat H9c2 cells at 10 uM treated 30 mins before oxygen and glucose deprivation measured after 6 hrs by DAPI staining
Format: cell-based
Quick rule: inhibition of at least 8% means 1, below that means -1.

Example entries and their recorded answers appear below.
O=C(CSc1ccc(Br)cc1)Nc1ccccc1C(=O)O 1
COC(=O)c1ccsc1NC(=O)CSc1ccccc1 1
COC(=O)c1nn(CCc2ccccc2)cc1NC(=O)COc1ccc(Br)cc1 -1
COC(=O)c1oc2cccc(Cl)c2c1NC(=O)CSc1ccccn1 -1

Note: attention shifts to another entry.
In: Answer whether inhibition of `COC(=O)c1sc2ncccc2c1NC(=O)CCSc1ccccn1` is greater than or equal to 8%.
Out: -1
